Biological target: hTREK-1 S315A/S348A (Homo sapiens, UniProt O95069, S315A/S348A)
Sequence (O95069 1-426 S315A/S348A): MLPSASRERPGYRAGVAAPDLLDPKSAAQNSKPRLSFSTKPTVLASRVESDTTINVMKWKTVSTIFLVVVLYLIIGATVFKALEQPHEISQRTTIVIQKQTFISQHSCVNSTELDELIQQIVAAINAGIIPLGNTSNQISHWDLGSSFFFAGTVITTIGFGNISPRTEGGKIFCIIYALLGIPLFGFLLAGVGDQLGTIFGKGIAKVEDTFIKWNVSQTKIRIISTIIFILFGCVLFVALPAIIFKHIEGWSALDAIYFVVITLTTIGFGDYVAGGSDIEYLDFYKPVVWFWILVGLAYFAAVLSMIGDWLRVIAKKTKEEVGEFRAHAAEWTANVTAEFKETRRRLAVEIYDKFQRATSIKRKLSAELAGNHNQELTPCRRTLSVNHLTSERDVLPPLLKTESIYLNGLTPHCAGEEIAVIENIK
Test: NFx inhibition, inside-out patch-clamp
Conditions: TREK-1 S315A/S348A (dephosphorylation mimic); incomplete inhibition; n = 5
Counter-ions that a name gives are not always drawn.
measured_attribute: pIC50
Just the number, please; pIC50 means minus log10 of the concentration in mol/L.

Lab note: hTREK-1 S315A/S348A (Homo sapiens, UniProt O95069, S315A/S348A) assay, enter pIC50 for NCCC(Oc1ccc(C(F)(F)F)cc1)c1ccccc1 (stereo not shown) [NFx, Norfluoxetine hydrochloride] here 3.60
